Target: Rhizobium etli pyruvate carboxylase (RePC) (Rhizobium etli, UniProt Q2K340, R427S)
Test: coupled spectrophotometric assay
readout-name: pKi
Value format note: pKi is -log10 of concentration (mol/L); just state the number.

What value of pKi has been recorded for this entry: N[C@@H](CC(=O)O)C(=O)O [L-aspartate] 2.15
